The measurements presented in this section are drawn from patent US9505749B2.

target: PARP2 (Homo sapiens (Human), UniProt Q9UGN5)
Sequence (Q9UGN5 whole entry): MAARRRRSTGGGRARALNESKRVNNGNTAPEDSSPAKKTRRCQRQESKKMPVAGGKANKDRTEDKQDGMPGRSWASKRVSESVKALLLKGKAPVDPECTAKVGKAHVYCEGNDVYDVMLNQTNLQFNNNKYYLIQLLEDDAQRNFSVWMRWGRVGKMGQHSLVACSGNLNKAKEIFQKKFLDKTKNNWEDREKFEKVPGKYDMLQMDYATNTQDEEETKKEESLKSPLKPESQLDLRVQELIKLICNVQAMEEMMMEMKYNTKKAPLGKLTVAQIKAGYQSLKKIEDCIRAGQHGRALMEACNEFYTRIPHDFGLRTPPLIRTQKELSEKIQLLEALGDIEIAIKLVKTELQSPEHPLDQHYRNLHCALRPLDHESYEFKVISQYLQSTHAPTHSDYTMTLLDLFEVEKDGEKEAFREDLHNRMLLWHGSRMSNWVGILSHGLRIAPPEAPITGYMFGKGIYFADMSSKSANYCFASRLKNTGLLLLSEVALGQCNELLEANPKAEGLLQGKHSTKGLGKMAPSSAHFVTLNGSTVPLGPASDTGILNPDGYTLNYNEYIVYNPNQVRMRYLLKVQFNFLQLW
readout_kind: IC50 (nM)

INSERT INTO assay_data (chemical_smiles, tgt, measured_result) VALUES
  ('COc1cccc(-c2nnc([C@H]3CC[C@H](NC(=O)CCCc4nc5ccccc5c(=O)[nH]4)CC3)o2)c1', 'PARP2 (Homo sapiens (Human), UniProt Q9UGN5)', 828),
  ('N#Cc1ccc(O[C@H]2CC[C@H](NC(=O)CCSc3nc4ccccc4c(=O)[nH]3)CC2)cc1', 'PARP2 (Homo sapiens (Human), UniProt Q9UGN5)', 1760),
  ('O=C(CCSc1nc2ccccc2c(=O)[nH]1)N[C@H]1C[C@H](c2nnc(-c3ccccc3)o2)C1', 'PARP2 (Homo sapiens (Human), UniProt Q9UGN5)', 3970);

[I] O=C(CCSc1nc2ccccc2c(=O)[nH]1)N[C@H]1CC[C@H](n2c(=O)[nH]c3cc(Cl)ccc32)CC1
[II] N#Cc1ccc(-c2nnc(C3CCN(C(=O)CCCc4nc5ccccc5c(=O)[nH]4)CC3)o2)cc1
Challenge: Compare I and II by numeric IC50 and name the larger one. Lab log: write the label of the selected item as the result.
Response given: II
(II: 1450 nM, I: 720 nM)

---

molecular target: UniProtKB P09874
Sequence (P09874 whole entry): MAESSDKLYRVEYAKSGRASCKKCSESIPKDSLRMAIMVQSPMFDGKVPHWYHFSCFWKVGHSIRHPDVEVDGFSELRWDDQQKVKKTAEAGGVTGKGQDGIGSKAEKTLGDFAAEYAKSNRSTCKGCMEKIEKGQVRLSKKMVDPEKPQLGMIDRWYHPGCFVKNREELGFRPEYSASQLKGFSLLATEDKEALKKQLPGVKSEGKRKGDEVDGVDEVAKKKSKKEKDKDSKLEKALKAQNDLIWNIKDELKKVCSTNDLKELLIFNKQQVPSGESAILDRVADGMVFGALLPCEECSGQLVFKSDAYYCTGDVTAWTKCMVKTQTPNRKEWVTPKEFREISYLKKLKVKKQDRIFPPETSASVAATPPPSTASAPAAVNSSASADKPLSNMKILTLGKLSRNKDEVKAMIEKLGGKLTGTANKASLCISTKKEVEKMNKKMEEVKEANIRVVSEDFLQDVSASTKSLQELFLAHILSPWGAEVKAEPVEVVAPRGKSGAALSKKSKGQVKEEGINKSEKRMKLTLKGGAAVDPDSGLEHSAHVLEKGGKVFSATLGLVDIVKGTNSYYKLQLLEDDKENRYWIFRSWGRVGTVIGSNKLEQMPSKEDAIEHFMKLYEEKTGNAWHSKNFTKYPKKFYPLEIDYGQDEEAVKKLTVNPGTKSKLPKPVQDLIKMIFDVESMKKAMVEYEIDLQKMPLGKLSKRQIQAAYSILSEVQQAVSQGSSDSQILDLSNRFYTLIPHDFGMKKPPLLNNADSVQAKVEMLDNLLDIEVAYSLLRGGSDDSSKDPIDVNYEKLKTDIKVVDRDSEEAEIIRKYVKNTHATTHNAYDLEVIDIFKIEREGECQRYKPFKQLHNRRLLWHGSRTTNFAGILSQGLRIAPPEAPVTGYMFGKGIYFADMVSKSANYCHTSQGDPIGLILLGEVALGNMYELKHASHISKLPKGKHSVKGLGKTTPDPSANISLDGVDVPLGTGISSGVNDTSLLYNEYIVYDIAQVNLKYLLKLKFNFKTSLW
readout_kind: IC50 (µM)

INSERT INTO measurements (chemical_smiles, measured_result) VALUES
  ('Cc1cccc(-c2nnc(C3CCN(C(=O)CCCc4nc5ccccc5c(=O)[nH]4)CC3)o2)c1', 3.13),
  ('O=C(CCCc1nc2ccccc2c(=O)[nH]1)N1CCC(N2C(=O)Cc3ccccc32)CC1', 6.42),
  ('N#Cc1cccc(-c2nnc(C3CCN(C(=O)CCCc4nc5ccccc5c(=O)[nH]4)CC3)o2)c1', 2.85),
  ('N#Cc1cc(O[C@H]2CC[C@H](NC(=O)CCCc3nc4ccccc4c(=O)[nH]3)CC2)ccc1Cl', 0.586);

[I] O=C(CCCc1nc2ccccc2c(=O)[nH]1)N1CCC(n2c(=O)[nH]c3cc(Cl)ccc32)CC1
[II] O=C(CCc1nc2ccccc2c(=O)[nH]1)N[C@H]1CC[C@H](c2nnc(Cc3ccccc3)o2)CC1
Challenge: Hello, I am sorting some records. Could you say if I or II has the smaller IC50 value? Lab log: write the label of the selected item as the result.
Response given: I
(I: 0.887 µM, II: 8.22 µM)

---

The listing below reports IC50 for molecules tested on 6×HIS-tankyrase 2 (946-1162) (Homo sapiens (Human)).
Sequence (Q9H2K2 946-1162): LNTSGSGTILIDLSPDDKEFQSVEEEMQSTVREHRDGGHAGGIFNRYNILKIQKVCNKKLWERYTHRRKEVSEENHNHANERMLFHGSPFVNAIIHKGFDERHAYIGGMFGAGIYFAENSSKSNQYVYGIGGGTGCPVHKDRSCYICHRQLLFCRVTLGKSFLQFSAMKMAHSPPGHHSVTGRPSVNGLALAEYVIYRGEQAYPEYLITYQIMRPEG
readout_kind: IC50 (nM)

INSERT INTO measurements (chemical_smiles, readout_kind, unit_spec, measured_result) VALUES
  ('O=C(CCCc1nc2ccccc2c(=O)[nH]1)N1CCC(n2c(=O)[nH]c3ccccc32)CC1', 'IC50', 'nM', 4.91);

[1] O=C(CCCc1nc2ccccc2c(=O)[nH]1)N1CCC(c2nnc(-c3ccc(F)c(Cl)c3)o2)CC1
[2] O=C(CCCc1nc2ccccc2c(=O)[nH]1)N1CCC(n2c(=O)[nH]c3cccnc32)CC1
[3] O=C(CCCc1nc2ccccc2c(=O)[nH]1)N[C@H]1CC[C@H](Oc2ccc(Cl)cc2)CC1
[4] N#Cc1cccc(-c2nnc([C@H]3CC[C@H](NC(=O)CCc4nc5ccccc5c(=O)[nH]4)CC3)o2)c1
[5] O=C(CCc1nc2ccccc2c(=O)[nH]1)N[C@H]1CC[C@H](c2nnc(-c3cnccn3)o2)CC1
Challenge: Descending sort on IC50 required. Form entry: labels listed in requested order.
Response given: 5, 4, 1, 2, 3
(5: 203 nM, 4: 99.8 nM, 1: 3.91 nM, 2: 1.51 nM, 3: 0.614 nM)
